- TARGET SYSTEM: hNELF-E (human, UniProt P18615 1-380)
- Sequence (P18615 whole entry): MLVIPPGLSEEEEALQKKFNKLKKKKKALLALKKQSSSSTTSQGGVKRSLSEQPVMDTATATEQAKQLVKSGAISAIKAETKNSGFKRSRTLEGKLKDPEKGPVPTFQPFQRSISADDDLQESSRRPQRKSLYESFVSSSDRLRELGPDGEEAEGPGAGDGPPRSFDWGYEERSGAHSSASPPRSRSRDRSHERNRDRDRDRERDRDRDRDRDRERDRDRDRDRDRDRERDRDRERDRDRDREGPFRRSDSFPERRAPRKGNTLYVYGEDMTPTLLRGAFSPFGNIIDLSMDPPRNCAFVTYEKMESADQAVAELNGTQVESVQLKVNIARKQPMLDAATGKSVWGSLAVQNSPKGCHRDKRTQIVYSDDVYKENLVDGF
- METHOD: F-EMSA; 10 mM HEPES-NaOH pH 7.5, 100 mM NaCl, 25 mM KCl, 1 mM MgCl2, 0.02% Tween-20, 0.01% IGEPAL CA-630, 10 µg/ml yeast tRNA; 2 nM RNA, 0-2000 nM protein, 1-2 h, binding temperature not stated; gel 5% acrylamide 0.5X TBE at 4 °C
- REPORTED CONDITIONS: protein: recombinant; tags: N-terminal His6 (pHIS-parallel1); label: 3' fluorescein (5-thiosemicarbazide); hairpin with UCU bulge
REPORTED PROPERTY: Kd (nM)
Numbers only here, please. The scale is nM.

BINDER: HIV-1 TAR+A (structured_RNA) RNA: GGUCUCUCUGGUUAGACCAGAUCUGAGCCUGAGGAGCUCUCUGGCUAACUAGGGAACC
Kd, nM: 250

Next, consider the following binder.
Q: Returns the measured Kd for the input binder. Input: HIV-1 TAR (structured_RNA) RNA: GGUCUCUCUGGUUAGACCAGAUCUGAGCCUGGGAGCUCUCUGGCUAACUAGGGAACC
Ans: 300
